Just for reference, ChEMBL document CHEMBL1909046 is where these values come from.

# system-name: 5-hydroxytryptamine receptor 4 (Cavia porcellus, UniProt O70528); note: in other assays of this panel Not Active means under 50% inhibition at 10 µM
# Sequence (O70528 whole entry): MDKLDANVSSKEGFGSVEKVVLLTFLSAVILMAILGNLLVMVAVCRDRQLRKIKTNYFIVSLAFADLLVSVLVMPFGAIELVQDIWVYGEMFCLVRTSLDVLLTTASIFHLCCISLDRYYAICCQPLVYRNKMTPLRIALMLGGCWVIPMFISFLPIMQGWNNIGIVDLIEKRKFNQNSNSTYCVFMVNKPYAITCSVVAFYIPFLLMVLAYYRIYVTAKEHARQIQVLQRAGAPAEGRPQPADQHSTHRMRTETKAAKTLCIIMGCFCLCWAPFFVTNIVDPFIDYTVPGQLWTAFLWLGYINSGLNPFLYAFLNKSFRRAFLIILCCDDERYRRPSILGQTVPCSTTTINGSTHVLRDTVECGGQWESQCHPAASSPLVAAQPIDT
# Type: cell membranes, Dunkin-Hartley, Striatum, Membrane
reported-property: IC50

Examples with answers:
>>> recorded_measurement("CCCCC(=O)N(Cc1ccc(-c2ccccc2-c2nnn[nH]2)cc1)[C@H](C(=O)O)C(C)C")
"Not Active"
>>> recorded_measurement("CCN(CC)CCNC(=O)c1ccc(N)cc1 [PROCAINAMIDE]")
"Not Active"
>>> recorded_measurement("CC(O)(P(=O)(O)O)P(=O)(O)O")
"Not Active"
>>> recorded_measurement("O=C(O)CCCCC1CCSS1 (stereo not given)")
"Not Active"

Query string: # query: IC50 of entry CN(C)C(=O)Oc1cccc([N+](C)(C)C)c1.[Br-] [NEOSTIGMINE BROMIDE]
Result string: Not Active
